Target: BRM (Homo sapiens, UniProt P51531)
Construct: made in house; host or cells: High Five insect cells
Sequence (P51531 whole entry): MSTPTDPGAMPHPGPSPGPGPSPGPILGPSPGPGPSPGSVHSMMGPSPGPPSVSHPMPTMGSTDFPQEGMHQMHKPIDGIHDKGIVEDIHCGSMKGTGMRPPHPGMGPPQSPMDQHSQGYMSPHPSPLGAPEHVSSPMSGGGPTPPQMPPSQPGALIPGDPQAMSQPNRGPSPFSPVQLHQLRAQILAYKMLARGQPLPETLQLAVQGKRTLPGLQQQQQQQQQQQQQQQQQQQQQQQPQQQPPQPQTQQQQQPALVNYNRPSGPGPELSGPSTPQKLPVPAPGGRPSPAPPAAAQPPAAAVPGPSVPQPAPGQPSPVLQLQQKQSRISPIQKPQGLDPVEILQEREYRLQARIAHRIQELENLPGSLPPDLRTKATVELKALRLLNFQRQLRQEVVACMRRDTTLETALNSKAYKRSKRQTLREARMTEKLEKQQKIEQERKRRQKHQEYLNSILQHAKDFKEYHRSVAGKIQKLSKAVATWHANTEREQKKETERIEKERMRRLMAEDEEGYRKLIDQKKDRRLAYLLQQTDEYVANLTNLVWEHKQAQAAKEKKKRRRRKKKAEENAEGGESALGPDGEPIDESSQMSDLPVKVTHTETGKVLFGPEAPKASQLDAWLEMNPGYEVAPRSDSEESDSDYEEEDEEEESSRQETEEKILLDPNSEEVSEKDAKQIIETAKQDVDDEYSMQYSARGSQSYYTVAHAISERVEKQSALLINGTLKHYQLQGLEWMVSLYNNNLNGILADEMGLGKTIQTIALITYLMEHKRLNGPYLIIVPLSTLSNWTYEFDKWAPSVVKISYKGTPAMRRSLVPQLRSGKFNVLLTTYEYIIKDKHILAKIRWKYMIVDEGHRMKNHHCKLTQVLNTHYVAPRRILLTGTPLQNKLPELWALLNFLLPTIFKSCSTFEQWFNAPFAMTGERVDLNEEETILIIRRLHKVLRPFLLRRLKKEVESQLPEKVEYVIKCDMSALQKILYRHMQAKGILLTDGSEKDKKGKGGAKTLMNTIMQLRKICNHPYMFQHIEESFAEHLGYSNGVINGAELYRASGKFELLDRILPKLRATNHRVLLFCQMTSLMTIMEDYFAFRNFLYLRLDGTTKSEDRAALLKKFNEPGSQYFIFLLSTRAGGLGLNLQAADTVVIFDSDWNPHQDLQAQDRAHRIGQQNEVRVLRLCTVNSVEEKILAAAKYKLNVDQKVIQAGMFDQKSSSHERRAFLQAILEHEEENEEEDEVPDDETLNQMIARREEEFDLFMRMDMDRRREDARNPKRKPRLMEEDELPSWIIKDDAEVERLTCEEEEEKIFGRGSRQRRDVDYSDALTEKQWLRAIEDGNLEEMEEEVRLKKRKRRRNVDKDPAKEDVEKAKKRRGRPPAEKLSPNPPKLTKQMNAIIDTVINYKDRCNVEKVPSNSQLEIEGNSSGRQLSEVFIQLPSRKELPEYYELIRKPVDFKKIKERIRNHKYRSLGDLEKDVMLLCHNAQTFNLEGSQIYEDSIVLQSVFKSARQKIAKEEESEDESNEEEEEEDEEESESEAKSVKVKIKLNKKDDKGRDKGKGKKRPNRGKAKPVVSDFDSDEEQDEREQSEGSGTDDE
Experiment: ATPase catalytic activity of BRM, ADP-Glo in vitro biochemical assay
Conditions: ATPase catalytic activity, ADP-Glo; 30 nM BRM, 400 μM ATP
testReadout: IC50 (µM)
Please reply with the bare figure in µM and do not write the unit itself.

See these solved cases before continuing.
compound: C[C@@H]1CCc2ccc(-c3ccc4cnc(CNC(=O)c5ccc6c(c5)S(=O)(=O)CCOC6)cc4n3)nc2N1C
IC50 / µM: 0.0236
--
compound: CCOC1CCS(=O)(=O)c2cc(C(=O)NCc3cc4nc(-c5cccc(N6CC(C)OC(C)C6)n5)ccc4cn3)ccc2C1 (stereo not shown)
IC50 / µM: 0.013
--
compound: O=C(NCc1cc2nc(-c3cccc(OCC4CCC4)n3)ccc2cn1)c1ccc2c(c1)S(=O)(=O)CCOC2
IC50 / µM: 0.0427

Shift focus to the following entry.
Look up and report IC50, with BRM (Homo sapiens, UniProt P51531) as system, for O=C(NCc1cc2nc(N3CCCc4ccc(Cl)cc43)ccc2cn1)c1ccc2c(c1)S(=O)(=O)CCOC2
0.0073
